FYI, the data here is from ChEMBL document CHEMBL3885861.

molecules and their reported MCV
# Species on record: Rattus norvegicus
# PROCEDURE SUMMARY: Open TG-GATES - Regimen: Daily Repeat
# Format: toxicity, organism-based, Sprague-Dawley
# Design: regimen Daily Repeat, gender Male, age 6 weeks
# MEASUREMENT PARAMETERS: in vivo, po, 100 mg/kg, […], tissue Blood, route gavage, dose level Low, time 7 day
Form entry: value (fL) — number only.

CC(S)C(=O)NCC(=O)O (centres undefined) ... 61.4
CCCCNC(=O)NS(=O)(=O)c1ccc(C)cc1 [TOLBUTAMIDE] ... 61.4
CC(=O)[C@@]1(O)CC[C@H]2[C@@H]3C=C(Cl)C4=CC(=O)CC[C@]4(C)[C@H]3CC[C@@]21C ... 60.1

May I ask what MCV has been recorded for "O=C(O)c1ccccc1Nc1ccccc1" ? 61.5
